- system-under-test: Tyro3 (Homo sapiens)
- Sequence (Q06418 41-890, species assumed): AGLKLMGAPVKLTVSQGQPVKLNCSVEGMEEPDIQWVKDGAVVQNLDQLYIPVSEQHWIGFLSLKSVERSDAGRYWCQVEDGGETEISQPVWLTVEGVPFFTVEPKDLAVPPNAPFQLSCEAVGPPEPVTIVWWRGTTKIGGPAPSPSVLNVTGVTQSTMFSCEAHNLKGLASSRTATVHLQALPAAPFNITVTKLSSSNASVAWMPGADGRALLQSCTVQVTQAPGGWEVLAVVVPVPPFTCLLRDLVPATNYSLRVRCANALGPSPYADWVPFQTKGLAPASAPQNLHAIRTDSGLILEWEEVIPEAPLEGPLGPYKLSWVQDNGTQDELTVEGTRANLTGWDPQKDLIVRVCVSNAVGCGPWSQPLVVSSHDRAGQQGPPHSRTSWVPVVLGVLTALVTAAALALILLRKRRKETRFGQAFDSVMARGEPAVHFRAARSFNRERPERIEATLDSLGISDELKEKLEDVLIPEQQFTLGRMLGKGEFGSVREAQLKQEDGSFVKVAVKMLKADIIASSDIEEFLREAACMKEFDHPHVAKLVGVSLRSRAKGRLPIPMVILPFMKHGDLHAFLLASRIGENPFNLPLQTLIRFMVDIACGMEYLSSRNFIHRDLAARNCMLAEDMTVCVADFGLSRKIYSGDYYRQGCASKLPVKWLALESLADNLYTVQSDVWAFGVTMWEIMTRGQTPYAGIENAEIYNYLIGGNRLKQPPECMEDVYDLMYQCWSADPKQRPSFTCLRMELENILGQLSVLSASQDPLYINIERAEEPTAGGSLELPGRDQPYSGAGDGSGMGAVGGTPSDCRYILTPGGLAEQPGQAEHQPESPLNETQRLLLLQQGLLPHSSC
pIC50: −log10 of the molar value.
Below, each of the compounds is paired with its reported pIC50 value.
reported-endpoint: pIC50

- compound: "C[C@H](Nc1ncc2c(C3CCN(C(=S)Nc4ccc(CC5CN(CC(=O)O)CCN(CC(=O)O)CCN5CC(=O)O)cc4)CC3)cn([C@H]3CC[C@H](O)CC3)c2n1)c1ccccc1 (some centres unmarked)"
  reported-endpoint: "pIC50"
  val: 6.74
- compound: "CCC[C@H](C)Nc1ncc2c(C3CCN(CCF)CC3)cn([C@H]3CC[C@H](O)CC3)c2n1"
  reported-endpoint: "pIC50"
  val: 6.72
